Recorded IC50 for the following binders
Biological target: Human SARS-CoV-2_Wuhan S (SmT1) (SARS-CoV-2 (Wuhan), UniProt P0DTC2 14-1208)
Assay: flow cytometry SVNA: VHH-Fc inhibits S binding to ACE2 on Vero E6 cells

>>> observed_result("NRCoV2-MRed05 VHH-Fc (Fc fusion, bivalent VHH-Fc) EVQLVESGGGLVQPGGSLRLSCAASGFTLDYYAIGWFRQAPGKEREGVSCISSSDGSTLYADSVKGRFTISRDNAKNTVYLQMNSLKPEDTAVYYCATGPQAYYSGSYYFQCPQAGMDYWGKGTQVTVSS")
"4.3 nM"

Consider the record given below.
# input Identify the reported IC50 for the following entry. NRCoV2-SR01 VHH-Fc (Fc fusion, bivalent VHH-Fc) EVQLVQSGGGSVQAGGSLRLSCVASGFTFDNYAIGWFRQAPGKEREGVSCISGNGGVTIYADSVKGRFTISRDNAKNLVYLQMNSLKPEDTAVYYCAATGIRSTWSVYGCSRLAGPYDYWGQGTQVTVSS
# output 4.2 nM

Cited source: patent US20240270826A1
